The values you see were collected from paper PMC8817134.

study-target: vWbp (von Willebrand factor-binding protein) (Staphylococcus aureus, UniProt Q93SM9, L69A)
measurement-protocol: biochemical

compound | unit-info | Kd
O=c1c(O)c(-c2ccccc2)oc2cc(O)cc(O)c12 [galangin, 3,5,7-trihydroxyflavone] | µM | 31.2

###

study-target: vWbp (von Willebrand factor-binding protein) (Staphylococcus aureus, UniProt Q93SM9, W64A)
measurement-protocol: biochemical
Description: fluorescence quenching on vWbp (von Willebrand factor-binding protein)
measurement-label: Kd (µM)

compound | unit-info | assay-value
O=c1c(O)c(-c2ccccc2)oc2cc(O)cc(O)c12 [galangin, 3,5,7-trihydroxyflavone] | µM | 20

###

study-target: vWbp (von Willebrand factor-binding protein) (Staphylococcus aureus, UniProt Q93SM9)
Construct: gene vwb; His-tagged, pET15b, E. coli BL21(DE3), Ni-NTA purified
measurement-protocol: biolayer interferometry (Octet RED, Ni-NTA sensor)
assay-conditions: read-out: binding constant

compound | Kd (µM)
O=c1c(O)c(-c2ccccc2)oc2cc(O)cc(O)c12 [galangin, 3,5,7-trihydroxyflavone] | 11
